All figures here come from patent US8865688B2.

ASSAY_COMMENT: Steady state pharmacokinetics, 3 treatments of 4 days: Asacol 800 mg BID, granulated mesalamine formulation 800 mg BID and 1600 mg QD
Assay type: in vivo, human
APPLIED_CONDITIONS: human, plasma, oral, 1600 mg, plasma, Day 4, after Treatment C MP 1600 mg QD, n = 28; mean ± SD
Measured Cmax, listed per entry.
Reply with just the number (in µM).

CC(=O)Nc1ccc(O)c(C(=O)O)c1 [N-Ac-5-ASA, N-acetyl-5-aminosalicylic acid]	23.1

Lab note: next compound to report on.
Qu. Consider the compound Nc1ccc(O)c(C(=O)O)c1 [Mesalamine (5-ASA), 5-aminosalicylic acid] and give its measured Cmax.
Ans. 19.9

====

ASSAY_COMMENT: clinical
APPLIED_CONDITIONS: human, in vivo, AUC0-24
METRIC_NAME: AUC(0-t)

Qu. Quick check: AUC(0-t) of Nc1ccc(O)c(C(=O)O)c1 [Mesalamine (5-ASA), 5-aminosalicylic acid] ?
Ans. 11000 ng·h/mL

====

ASSAY_COMMENT: Steady state pharmacokinetics, 3 treatments of 4 days: Asacol 800 mg BID, granulated mesalamine formulation 800 mg BID and 1600 mg QD
Format: in vivo, human
APPLIED_CONDITIONS: human, plasma, oral, 800 mg, AUCC, Day 4, after Treatment A Asacol 800 mg BID; mean ± SD; read-out: AUC
Experimental: In a study of 3 treatments in 3 study periods, each separated by a minimum washout of 7 days, treatments were administered orally, and were as follows: Subjects received treatments A, B, and C, with each administered during one of the three 4-day study treatment periods. Each treatment regimen lasted for 4 days and was followed by at least a 7 day washout period.
Each entry below carries its reported AUC.
Quick note: give the figure in µM·h, leave out the unit.

Nc1ccc(O)c(C(=O)O)c1	54.5

Qu. Can you share its AUC? I mean this compound: CC(=O)Nc1ccc(O)c(C(=O)O)c1
Ans. 158

====

ASSAY_COMMENT: clinical
APPLIED_CONDITIONS: human, in vivo
METRIC_NAME: AUC(0-inf)
Write the quantity with the unit trailing the number.

Qu. Which value of AUC(0-inf) has been reported for Nc1ccc(O)c(C(=O)O)c1 [Mesalamine (5-ASA), 5-aminosalicylic acid] in the records?
Ans. 14000 ng·h/mL

====

ASSAY_COMMENT: clinical
APPLIED_CONDITIONS: human, in vivo, Tmax
METRIC_NAME: Tmax (h)
Reply numerically in h, unit not repeated.

Qu. Recorded Tmax for Nc1ccc(O)c(C(=O)O)c1 [Mesalamine (5-ASA), 5-aminosalicylic acid] , please?
Ans. 4

====

ASSAY_COMMENT: Single and multiple oral dose pharmacokinetics of 1.5 g granulated mesalamine formulation, crossover, healthy subjects, fasting
APPLIED_CONDITIONS: human, plasma, oral, 1.5 g
METRIC_NAME: AUC(0-inf)
Kindly write the number and append the unit.

Qu. # query: AUC(0-inf) of entry CC(=O)Nc1ccc(O)c(C(=O)O)c1 [N-Ac-5-ASA, N-acetyl-5-aminosalicylic acid]
Ans. 51000 ng·h/mL

====

ASSAY_COMMENT: Single and multiple oral dose pharmacokinetics of 1.5 g granulated mesalamine formulation, crossover, healthy subjects, fasting
APPLIED_CONDITIONS: human, plasma, oral, 1.5 g, Tmax, single dose 1.5 g; median (range)
METRIC_NAME: Tmax (h)
Return type: number; implicit unit h.

Qu. Consider the compound shown here: CC(=O)Nc1ccc(O)c(C(=O)O)c1 [N-Ac-5-ASA, N-acetyl-5-aminosalicylic acid] What is its recorded Tmax?
Ans. 4

====

ASSAY_COMMENT: Steady state pharmacokinetics, 3 treatments of 4 days: Asacol 800 mg BID, granulated mesalamine formulation 800 mg BID and 1600 mg QD
Type: in vivo, human
APPLIED_CONDITIONS: human, plasma, oral; Day 4, after MP 1600 mg QD; median (range); read-out: Tmax
Measured Tmax by item
The reply should contain only the number, in h.

Nc1ccc(O)c(C(=O)O)c1	3

Pending molecule:
Qu. Which Tmax reading was recorded for the molecule CC(=O)Nc1ccc(O)c(C(=O)O)c1 ?
Ans. 3

====

ASSAY_COMMENT: Single and multiple oral dose pharmacokinetics of 1.5 g granulated mesalamine formulation, crossover, healthy subjects, fasting
APPLIED_CONDITIONS: human, plasma, oral, 1.5 g, t1/2, single dose 1.5 g; harmonic mean (pseudo SD)
METRIC_NAME: half-life (h)
Kindly answer with a numeric value in h, unit omitted.

Qu. Request the reported half-life associated with CC(=O)Nc1ccc(O)c(C(=O)O)c1 [N-Ac-5-ASA, N-acetyl-5-aminosalicylic acid]
Ans. 12
